// provenance: PubChem BioAssay AID1159580

# test summary: chemical genetic growth profiling, strain panel (AID 1159580);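 note: tested at 20 µM; growth read once vehicle control cultures reached saturation at 30 °C; 1 = growth at the plate median or of vehicle wells; lower values mean less growth of the strain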
# measurement parameters: S. cerevisiae deletion strains, growth OD, locus YDL074C, strain BRE1, hits give low values
In all, about 5,500 compounds went through this assay and about 2,000 (36%) were called active. Roughly 18% stayed inconclusive and do not appear here. This is one part of the list.
Assignment: determine reported normalized growth for the given compounds.
Answer with a bare number; do not write a unit.

Briefly, normalized growth measured for CCCc1ncc(C[n+]2ccccc2C)c(N)n1 : 0.99

The compound listed as C[N+]12CCC(CC1)C(OC(=O)C(O)(c1ccccc1)c1ccccc1)C2 (configuration not stated) has a reported normalized growth of 0.975

Recorded normalized growth (compound CCCCCC/C=C\CCCCCCCc1cccc(O)c1C(=O)O ): 0.992

Looking up CC[C@H]1OC(=O)[C@H](C)[C@@H](O[C@H]2C[C@@](C)(OC)[C@@H](O)[C@H](C)O2)[C@H](C)[C@@H](O[C@@H]2O[C@H](C)C[C@H](N(C)C)[C@H]2O)[C@](C)(O)C[C@@H](C)/C(=N/OCOCCOC)[C@H](C)[C@@H](O)[C@]1(C)O , I found its normalized growth recorded as 0.975

// field: normalized growth; key: CC(C)N=C(N)N=C(N)Nc1ccc(Cl)cc1 ; value = 1.02

For reference, reported normalized growth for NC(=NCCCCCCN=C(N)N=C(N)Nc1ccc(Cl)cc1)N=C(N)Nc1ccc(Cl)cc1 stands at 0.0847

Notebook: Cc1cc(O)c2c(c1)C(=O)c1cc(O)cc(O)c1C2=O , normalized growth read as 0.56

###

# test summary: chemical genetic growth profiling, strain panel (AID 1159580)
# measurement parameters: S. cerevisiae deletion strains, growth OD, locus YJL092W, strain hpr5
Out of some 5,500 compounds screened, about 2,000 (36%) were called active. Another 18% or so got no clear call; they are omitted. No stated cut-off is given here; in the data, active means normalized growth mostly below about 0.91 (no sharp cut-off); inconclusive means no clear call, values can overlap the other calls; inactive means mostly above about 0.92. This is one part of the list.
Entry note: the call must match one of active, inactive

Q: Short answer needed: outcome of this test for CC(=O)Nc1c(I)cc(I)c(C(=O)O)c1I ?
Ans: inactive

Q: What call does the record list for CCCc1ncc(C[n+]2ccccc2C)c(N)n1 ?
Ans: inactive

Q: Which result was noted for this compound in the test: NC(=NCCCCCCN=C(N)N=C(N)Nc1ccc(Cl)cc1)N=C(N)Nc1ccc(Cl)cc1
Ans: active

Q: What outcome does the record of this test show for Cn1c(=O)c2c(ncn2CCO)n(C)c1=O ?
Ans: inactive

Q: Hey, what did the test say about COc1ccc(-c2c(O)c3c(OC)c4c(cc3oc2=O)OC(C)(C)C=C4)cc1 ?
Ans: inactive

Q: What was the test verdict on COc1cc([C@@H]2c3cc4c(cc3[C@H](O)[C@H]3COC(=O)[C@H]23)OCO4)cc(OC)c1OC ?
Ans: inactive

Q: Hello, I am checking results. What call was entered for O=C1NS(=O)(=O)c2ccccc21 ?
Ans: inactive

Q: // outcome(item) with item = CC(C)N1C(=O)c2ccccc2NS1(=O)=O
Ans: inactive

Q: What was the test verdict on CC(C)C1CCC(C(=O)N[C@@H](Cc2ccccc2)C(=O)O)CC1 (some centres undefined) ?
Ans: inactive

Q: Any idea what this test logged for NS(=O)(=O)c1cc2c(cc1Cl)NCNS2(=O)=O ?
Ans: inactive

Q: Called result for NC(Cc1ccc(Cl)cc1)C(=O)O (centres undefined)
Ans: inactive

Q: Hi team, can someone confirm the assay call for COCC1=C(C(=O)OC(C)OC(=O)OC(C)C)N2C(=O)[C@@H](NC(=O)/C(=N\OC)c3csc(N)n3)[C@H]2SC1 (some centres undefined) ?
Ans: inactive

Q: Record request — test call for CNC(C)(C)Cc1ccccc1
Ans: inactive

Q: Tell me the assay call for C[N+]12CCC(CC1)C(OC(=O)C(O)(c1ccccc1)c1ccccc1)C2 (centres undefined) please.
Ans: inactive

Q: Any idea what this test logged for CC(=CC1CCC(C)C2C1=C(C)CC2O)C(=O)O (centres undefined) ?
Ans: inactive

Q: How was O=C(O)C1=C(CSc2nnnn2CS(=O)(=O)O)CS[C@@H]2C(NC(=O)[C@H](O)c3ccccc3)C(=O)N12 (some centres undefined) classified in this test?
Ans: inactive

Q: Entry Cn1c(=O)[nH]c2ncn(C)c2c1=O : call = ?
Ans: inactive

Q: In this assay, the call recorded for COc1ccccc1OCC(O)COC(N)=O (centres undefined) was what?
Ans: inactive

Q: Kindly provide the recorded test outcome for the following compound: CNC(C)[C@@H]1CC[C@@H](N)[C@@H](OC2[C@@H](N)C[C@@H](N)[C@H](OC3OC[C@](C)(O)[C@H](NC)[C@H]3O)[C@H]2O)O1 (some centres undefined)
Ans: inactive

Q: Could you kindly confirm the outcome this assay logged for Cn1c(=O)c2c(ncn2C)n(C)c1=O ?
Ans: inactive

Q: Hello, I am checking results. What call was entered for O=C(Nc1ccc([N+](=O)[O-])cc1Cl)c1cc(Cl)ccc1O ?
Ans: inactive

Q: Recorded test outcome, item CC(=O)NC1C(O)OC(COS(=O)(=O)O)C(OC2OC(C(=O)O)C(OC3OC(CO)C(OC4OC(C(=O)O)C(O)C(O)C4OS(=O)(=O)O)C(OS(=O)(=O)O)C3NS(=O)(=O)O)C(O)C2OS(=O)(=O)O)C1O (centres undefined)
Ans: inactive

Q: Each compound tested received a call. Report the one for NNCc1ccccc1 .
Ans: inactive

Q: Could you check what this test reported for Cn1cnc2c1c(=O)[nH]c(=O)n2C ?
Ans: inactive

###

# test summary: chemical genetic growth profiling, strain panel (AID 1159580);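 note: tested at 20 µM; growth read once vehicle control cultures reached saturation at 30 °C; 1 = growth at the plate median or of vehicle wells; lower values mean less growth of the strain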
# measurement parameters: S. cerevisiae deletion strains, growth OD, locus YDL101C, strain DUN1, hits give low values
Screen size: about 5,500 compounds; about 2,000 (36%) were called active. Roughly 18% stayed inconclusive and do not appear here. The list shows a part of the results.
I'd appreciate it if you could supply normalized growth values for the items below.
Number only, please.

compound O=C1NS(=O)(=O)c2ccccc21 , normalized growth observed: 1.01

Lab book: normalized growth of O=C(O)CCC(=O)OC[C@@H](NC(=O)C(Cl)Cl)[C@H](O)c1ccc([N+](=O)[O-])cc1 noted as 0.995

The recorded normalized growth for entry O=S(=O)(Nc1cc(C(F)(F)F)cc(C(F)(F)F)c1)c1ccc(Cl)s1 equals 0.942

Reported normalized growth ( O=C(N[C@@H](CO)[C@H](O)c1ccc([N+](=O)[O-])cc1)C(Cl)Cl ) = 1.01

The compound listed as Cc1c(C)c(C)c(S(=O)(=O)Nc2ccccc2N)c(C)c1C has a reported normalized growth of 1.04

###

# test summary: chemical genetic growth profiling, strain panel (AID 1159580);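 note: tested at 20 µM; growth read once vehicle control cultures reached saturation at 30 °C; 1 = growth at the plate median or of vehicle wells; lower values mean less growth of the strain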
# measurement parameters: S. cerevisiae deletion strains, growth OD, locus YAL013W, strain DEP1, hits give low values
Out of some 5,500 compounds screened, about 2,000 (36%) were called active. Another 18% or so got no clear call; they are omitted. The list shows a part of the results.
endpoint label: normalized growth
Write the number on its own, no unit after it.

The molecule listed as CCOC(=O)c1ccc(N2CCOCC2)c(N=Cc2cc(Cl)ccc2O)c1 shows normalized growth equal to 0.94

Please fill in: normalized growth reported for Cc1ccc(NC(=S)C(C#N)C(=O)N2CCCC2)c(C)c1 (stereo unspecified) = 1.01

Given item CCOC(=O)c1ccc(NC(=S)N2CCOCC2)cc1 , the value recorded as its normalized growth is 1.01

Per the record, O=c1c(O)c(-c2ccccc2)oc2ccccc12 has normalized growth of 0.993

Given item O=C(O)C1c2ccccc2C(=O)N(Cc2ccc3c(c2)OCO3)C1c1cccnc1 (stereo unspecified) , the value recorded as its normalized growth is 1.02

The reported normalized growth of the molecule O=c1c(O)c(-c2ccccc2)oc2ccc3occc3c12 was 0.925

###

# test summary: chemical genetic growth profiling, strain panel (AID 1159580);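 note: tested at 20 µM; growth read once vehicle control cultures reached saturation at 30 °C; 1 = growth at the plate median or of vehicle wells; lower values mean less growth of the strain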
# measurement parameters: S. cerevisiae deletion strains, growth OD, locus YJR043C, strain POL32, hits give low values
In all, about 5,500 compounds went through this assay and about 2,000 (36%) were called active. About 18% were inconclusive and are not listed. The list shows a part of the results.
Answer each item with its documented normalized growth.
The answer should be a number; do not append a unit.

Entry O=[N+]([O-])c1cc(C(F)(F)F)ccc1Sc1ccc(Cl)cc1 , normalized growth reported as 1

In plain terms, Cc1noc(C)c1C(=O)N1CCOCC1 has a documented normalized growth of 1

Just so you know, measured normalized growth for Cn1c(Sc2ccc(C(F)(F)F)cc2[N+](=O)[O-])nnc1C(F)(F)F came out at 1

Item: Nc1nc(Sc2ccc(C(F)(F)F)cc2[N+](=O)[O-])n[nH]1 | normalized growth: 1.01

// normalized growth value for CC(=O)OC[C@@]1(O)C[C@@]23CCC4c5ccoc5CC[C@]4(C)C2CC[C@@H]1C3 (stereo partly specified) : 0.954

# normalized growth (molecule: COP(=O)(NC(C)=O)SC (stereo unspecified) ) is 1.02
